Biological target: human TAS2R1 (Homo sapiens, UniProt Q9NYW7)
Construct: expressed in transfected cells; host or cells: HEK293T-Gα16gust44
Sequence (Q9NYW7 1-299): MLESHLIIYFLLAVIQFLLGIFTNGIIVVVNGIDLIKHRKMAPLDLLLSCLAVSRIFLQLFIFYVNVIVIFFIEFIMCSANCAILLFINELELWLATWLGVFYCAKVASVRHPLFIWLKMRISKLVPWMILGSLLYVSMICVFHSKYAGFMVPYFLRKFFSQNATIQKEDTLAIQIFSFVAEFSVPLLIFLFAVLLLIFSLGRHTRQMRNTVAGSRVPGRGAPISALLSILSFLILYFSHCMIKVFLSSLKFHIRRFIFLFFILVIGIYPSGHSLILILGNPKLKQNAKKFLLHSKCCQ
Experiment: Calcium imaging assay (FLIPR), HEK293T-Gα16gust44 cells transfected with human TAS2R1
Type: cell-based
Conditions: Time 76.796 s
I'd be grateful if you could share measured RLU for these entries.
Express it in RLU; write the number only.

Data request, read-out RLU, for C[C@H](CCC(=O)O)[C@H]1CC[C@H]2[C@@H]3[C@H](O)C[C@@H]4C[C@H](O)CC[C@]4(C)[C@H]3CC[C@]12C
841.862

Now consider C[C@H](CCC(=O)O)[C@H]1CC[C@H]2[C@@H]3[C@@H](O)C[C@@H]4C[C@H](O)CC[C@]4(C)[C@H]3CC[C@]12C .
596.187

Moving on to the next compound: C[C@H](CCC(=O)O)[C@H]1CC[C@H]2[C@@H]3CC[C@@H]4C[C@H](O)CC[C@]4(C)[C@H]3CC[C@]12C
873.737

Repeat with C[C@H](CCC(=O)O)[C@H]1CC[C@H]2[C@@H]3[C@H](O)C[C@@H]4C[C@H](O)CC[C@]4(C)[C@H]3C[C@H](O)[C@]12C
719.984

* * *

Assignment: determine reported RLU for the given compounds.
molecular target: human TAS2R14 (Homo sapiens, UniProt Q9NYV8); construct: expressed in transfected cells; host or cells: HEK293T-Gα16gust44; test: Calcium imaging assay (FLIPR), HEK293T-Gα16gust44 cells transfected with human TAS2R14; format: cell-based; settings: TAS2R14 trace; Time (s) 50.797 (Chenodeoxycholic Acid 50.781)
Numbers only; they are read as RLU.

Fill in: RLU of C[C@H](CCC(=O)O)[C@H]1CC[C@H]2[C@@H]3[C@H](O)C[C@@H]4C[C@H](O)CC[C@]4(C)[C@H]3CC[C@]12C is ___
489.05

Now the same for C[C@H](CCC(=O)NCCS(=O)(=O)O)[C@H]1CC[C@H]2[C@@H]3CC[C@@H]4C[C@H](O)CC[C@]4(C)[C@H]3CC[C@]12C
125.702

Continue with C[C@H](CCC(=O)NCC(=O)O)[C@H]1CC[C@H]2[C@@H]3[C@H](O)C[C@@H]4C[C@H](O)CC[C@]4(C)[C@H]3C[C@H](O)[C@]12C
322.537

Please do the same for C[C@H](CCC(=O)NCCS(=O)(=O)O)[C@H]1CC[C@H]2[C@@H]3[C@H](O)C[C@@H]4C[C@H](O)CC[C@]4(C)[C@H]3C[C@H](O)[C@]12C as well.
379.622

Okay, and C[C@H](CCC(=O)O)[C@H]1CC[C@H]2[C@@H]3[C@H](O)C[C@@H]4C[C@H](O)CC[C@]4(C)[C@H]3C[C@H](O)[C@]12C ?
522.709

* * *

biological target: mouse Tas2r144 (Mus musculus); construct: expressed in transfected cells; host or cells: HEK293T-Gα16gust44; assay: Calcium imaging assay (FLIPR), HEK293T-Gα16gust44 cells transfected with mouse Tas2r144; type: cell-based; settings: Time 76.781 s
Sequence (Q7TQB8 whole entry): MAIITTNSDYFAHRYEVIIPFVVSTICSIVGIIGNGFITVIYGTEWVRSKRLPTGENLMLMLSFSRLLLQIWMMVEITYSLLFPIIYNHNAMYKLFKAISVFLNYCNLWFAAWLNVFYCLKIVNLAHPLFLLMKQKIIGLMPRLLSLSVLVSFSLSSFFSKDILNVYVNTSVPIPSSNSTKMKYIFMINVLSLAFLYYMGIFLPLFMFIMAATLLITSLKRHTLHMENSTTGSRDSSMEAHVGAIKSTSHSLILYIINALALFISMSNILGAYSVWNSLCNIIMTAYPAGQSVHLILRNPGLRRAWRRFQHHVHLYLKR
Quantity: RLU (RLU)
The reply should be a number in RLU, with the unit left off.

Record lookup: for mouse Tas2r144 (Mus musculus), what RLU belongs to C[C@H](CCC(=O)NCCS(=O)(=O)O)[C@H]1CC[C@H]2[C@@H]3CC[C@@H]4C[C@H](O)CC[C@]4(C)[C@H]3CC[C@]12C [Taurolithocholic Acid, taurolithocholic acid] ?
430.589

Okay, and C[C@H](CCC(=O)NCCS(=O)(=O)O)[C@H]1CC[C@H]2[C@@H]3[C@H](O)C[C@@H]4C[C@H](O)CC[C@]4(C)[C@H]3C[C@H](O)[C@]12C [Taurocholic Acid, taurocholic acid] ?
534.766

What about C[C@H](CCC(=O)O)[C@H]1CC[C@H]2[C@@H]3[C@H](O)C[C@@H]4C[C@H](O)CC[C@]4(C)[C@H]3C[C@H](O)[C@]12C [Cholic Acid, cholic acid] ?
633.033

Next record, please: C[C@H](CCC(=O)NCC(=O)O)[C@H]1CC[C@H]2[C@@H]3[C@H](O)C[C@@H]4C[C@H](O)CC[C@]4(C)[C@H]3C[C@H](O)[C@]12C [Glycocholic Acid, glycocholic acid]
421.617

* * *

Molecular target: human TAS2R14 (Homo sapiens, UniProt Q9NYV8)
Construct: expressed in transfected cells; host or cells: HEK293T-Gα16gust44
Sequence (Q9NYV8 1-317): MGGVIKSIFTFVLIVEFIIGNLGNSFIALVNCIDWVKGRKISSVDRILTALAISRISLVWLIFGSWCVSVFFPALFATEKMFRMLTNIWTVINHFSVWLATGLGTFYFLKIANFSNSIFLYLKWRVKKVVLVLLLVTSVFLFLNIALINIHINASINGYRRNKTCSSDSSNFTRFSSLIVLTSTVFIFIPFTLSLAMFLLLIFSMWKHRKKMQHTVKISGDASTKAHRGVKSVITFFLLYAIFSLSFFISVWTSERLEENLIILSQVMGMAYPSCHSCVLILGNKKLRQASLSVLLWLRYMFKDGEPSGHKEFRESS
Assay: Calcium imaging assay (FLIPR), HEK293T-Gα16gust44 cells transfected with human TAS2R14
Assay type: cell-based
Details: TAS2R14 trace; Time (s) 92.797 (Chenodeoxycholic Acid 92.781)
Description: This set of bile acids was chosen because of their commercial availability in high purities, their diversity within the class of bile acids and their previous detection and quantitation in human blood. Stock solutions were prepared in DMSO. […] Measured data were negative control corrected by subtracting the signal of the mock-transfected cells and exported to Microsoft Excel using the FLIPR software ScreenWorks 4.2. […]
Label 1 (yes) when RLU is at or above 800 RLU; otherwise label 0 (no).

Say whether C[C@H](CCC(=O)NCC(=O)O)[C@H]1CC[C@H]2[C@@H]3[C@H](O)C[C@@H]4C[C@H](O)CC[C@]4(C)[C@H]3C[C@H](O)[C@]12C shows RLU of 800 RLU or more.
1 (yes)

Next compound: C[C@H](CCC(=O)O)[C@H]1CC[C@H]2[C@@H]3[C@H](O)C[C@@H]4C[C@H](O)CC[C@]4(C)[C@H]3C[C@H](O)[C@]12C
1 (yes)

Ok, now C[C@H](CCC(=O)O)[C@H]1CC[C@H]2[C@@H]3[C@H](O)C[C@@H]4C[C@H](O)CC[C@]4(C)[C@H]3CC[C@]12C
0 (no)

Field entry: C[C@H](CCC(=O)NCCS(=O)(=O)O)[C@H]1CC[C@H]2[C@@H]3CC[C@@H]4C[C@H](O)CC[C@]4(C)[C@H]3CC[C@]12C
0 (no)

* * *

Target: human TAS2R14 (Homo sapiens, UniProt Q9NYV8)
Construct: expressed in transfected cells; host or cells: HEK293T-Gα16gust44
Sequence (Q9NYV8 1-317): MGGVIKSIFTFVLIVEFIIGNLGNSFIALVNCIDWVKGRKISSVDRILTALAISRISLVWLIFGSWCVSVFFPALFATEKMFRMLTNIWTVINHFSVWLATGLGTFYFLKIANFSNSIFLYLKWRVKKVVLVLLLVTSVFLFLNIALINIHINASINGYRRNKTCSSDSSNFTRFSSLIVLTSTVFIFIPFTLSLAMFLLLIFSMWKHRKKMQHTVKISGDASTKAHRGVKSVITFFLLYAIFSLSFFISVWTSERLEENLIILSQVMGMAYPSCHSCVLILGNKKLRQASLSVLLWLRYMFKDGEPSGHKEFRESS
Test: Calcium imaging assay (FLIPR), HEK293T-Gα16gust44 cells transfected with human TAS2R14
Format: cell-based
Details: TAS2R14 trace; Time (s) 6 (Taurocholic Acid 6.016)
Exercise: for every item that follows, state its recorded RLU.
// return numeric value only (unit: RLU, not printed)

So what's the measured RLU for this one? C[C@H](CCC(=O)O)[C@H]1CC[C@H]2[C@@H]3[C@H](O)C[C@@H]4C[C@H](O)CC[C@]4(C)[C@H]3CC[C@]12C
-14.6279

Next up: C[C@H](CCC(=O)O)[C@H]1CC[C@H]2[C@@H]3[C@H](O)C[C@@H]4C[C@H](O)CC[C@]4(C)[C@H]3C[C@H](O)[C@]12C
-14.5682

Another compound: C[C@H](CCC(=O)NCCS(=O)(=O)O)[C@H]1CC[C@H]2[C@@H]3[C@H](O)C[C@@H]4C[C@H](O)CC[C@]4(C)[C@H]3C[C@H](O)[C@]12C
-38.8354

Repeat for the following compound: C[C@H](CCC(=O)NCCS(=O)(=O)O)[C@H]1CC[C@H]2[C@@H]3CC[C@@H]4C[C@H](O)CC[C@]4(C)[C@H]3CC[C@]12C
-10.1397

Try this compound too: C[C@H](CCC(=O)NCC(=O)O)[C@H]1CC[C@H]2[C@@H]3[C@H](O)C[C@@H]4C[C@H](O)CC[C@]4(C)[C@H]3C[C@H](O)[C@]12C
-27.0469
